Consider the following molecules; for each one, report its Cholesterol-free media + simvastatin (0.04 μM).
- Tested on: NCI-H292 lung cancer cells
- assay-name: FDA drug screening, complete media vs cholesterol-free media with simvastatin (TABLE 2)
- Assay type: cell-based, human
- measurement-context: NCI-H292 cells, FDA drug library screen, cholesterol-free media with simvastatin 0.04 μM
Structures can show the parent of a compound that is named as a salt.
One number for each entry.

Illustrative cases are given below, each with its answer.
1) C[C@@H](O)[C@H]1C(=O)N2C(C(=O)[O-])=C(SC3Cn4cnc[n+]4C3)[C@H](C)[C@H]12 (some centres unmarked): 1.249
2) CN(C(=O)/C=C/c1ccoc1)[C@@H]1CC[C@@]2(O)[C@H]3Cc4ccc(O)c5c4[C@@]2(CCN3CC2CC2)[C@H]1O5 [Nalfurafine (hydrochloride)]: 1.083
3) C[C@@H](OC[C@@]1(c2ccccc2)CC[C@]2(CCC(=O)N2)CN1)c1cc(C(F)(F)F)cc(C(F)(F)F)c1: 1.001

I have 2 molecules here; please give me Cholesterol-free media + simvastatin (0.04 μM) for each one.
1. O=C(O)/C=C/c1ccc(O)c(O)c1
2. CC[C@@]1(O)C(=O)OCc2c1cc1n(c2=O)Cc2cc3ccccc3nc2-1

Out:
[0.9424, "−0.11"]

###

- Test system: NCI-H292 lung cancer cells
- assay-name: FDA drug screening, complete media vs cholesterol-free media with simvastatin (TABLE 2)
- Assay type: cell-based, human
- measurement-context: NCI-H292 cells, cholesterol-free media with simvastatin 0.04 μM; FDA drug library screen (TABLE 2)
Structures can show the parent of a compound that is named as a salt.
reported-endpoint: Cholesterol-free media + simvastatin (0.04 μM)

Worked cases, answers included:
1) O=C1[C@H]2CCCC[C@H]2C(=O)N1CCCCN1CCN(c2nsc3ccccc23)CC1 [Perospirone]: 0.9946
2) CCCCC(=O)O[C@H]1CC[C@H]2[C@@H]3CCc4cc(O)ccc4[C@H]3CC[C@]12C [Estradiol valerianate]: 0.9732

Shifting focus to the molecule that follows.
In: Answer with reported Cholesterol-free media + simvastatin (0.04 μM) of CC(C)(C)NC[C@H](O)COc1cccc2c1CCCC2=O [Levobunolol (hydrochloride)]
Out: 0.9864

###

- Test system: NCI-H292 lung cancer cells
- assay-name: FDA drug screening, complete media vs cholesterol-free media with simvastatin (TABLE 2)
- Assay type: cell-based, human
- measurement-context: NCI-H292 cells, cholesterol-free media with simvastatin 0.04 μM; FDA drug library screen (TABLE 2)
Counter-ions that a name gives are not always drawn.
reported-endpoint: Cholesterol-free media + simvastatin (0.04 μM)
One number for each entry.

Sample answers from the record:
1) CCCc1cc(=O)[nH]c(=S)[nH]1: 0.9529
2) Cc1ccc2c(Cl)cc(Cl)c(O)c2n1: 0.0008861
3) O=C(CCCN1CCN(c2ccccn2)CC1)c1ccc(F)cc1: 1.007
4) CC(=O)N(CC(O)CN(C(C)=O)c1c(I)c(C(=O)NCC(O)CO)c(I)c(C(=O)NCC(O)CO)c1I)c1c(I)c(C(=O)NCC(O)CO)c(I)c(C(=O)NCC(O)CO)c1I (stereo not drawn): 1.197
5) CCN(CC)CC(=O)Nc1c(C)cccc1C [Lidocaine (hydrochloride)]: 0.8862

For each of the molecules below, state Cholesterol-free media + simvastatin (0.04 μM).
1. O=C(O)Cc1ccccc1Nc1c(Cl)cccc1Cl
2. CC(=O)[C@]1(O)Cc2c(O)c3c(c(O)c2[C@@H](O[C@H]2C[C@H](N)[C@H](O)[C@H](C)O2)C1)C(=O)c1ccccc1C3=O [Idarubicin (hydrochloride)]

Out:
[0.9893, 0.008408]

Hi there! I need Cholesterol-free media + simvastatin (0.04 μM) for each item below, if you can.
1. N#C[C@@H]1C[C@@H]2C[C@@H]2N1C(=O)[C@@H](N)C12CC3CC(CC(O)(C3)C1)C2
2. Cc1nccn1CC1CCc2c(c3ccccc3n2C)C1=O (stereo not drawn)

Out:
0.8307
1.019

Dear colleague, could you please provide Cholesterol-free media + simvastatin (0.04 μM) for the molecules listed below?
1. C=CC(=O)N1CCC[C@@H](n2nc(-c3ccc(Oc4ccccc4)cc3)c3c(N)ncnc32)C1 (racemic) [Ibrutinib (Racemate)]
2. CN(Cc1cnc2nc(N)nc(N)c2n1)c1ccc(C(=O)N[C@@H](CCC(=O)O)C(=O)O)cc1 [Methotrexate]
3. CCCN(CCc1cccs1)[C@H]1CCc2c(O)cccc2C1

Out:
0.346
0.1275
1.128
